- Test system: OVCAR3 cells
- Assay method text: MTT proliferation assay, OVCAR3;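 also: compound given as an 8- or 10-point series, one day after plating, with exposure covering roughly 3-4 cell doublings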
- Format: cell-based
- Measurement parameters: 5 days compound exposure, 1:3 serial dilution starting at 10 μM
*1 amine or outer side, *2 acyl side, *3 side chain or, on linkers, in order; H or OH if unused. Where a SMILES comes first, the peptide text is derived from it. Bridges are numbered along the chain shown (N, C = ends). [ ]: non-standard residue; d: D form. The star is where a group is joined. NMeAla(5-Cl-2-cPrO-3-pyridyl) = CN[C@@H](Cc1cc(Cl)cnc1OC1CC1)C(=O)O; X8 = CN1CCN(C2CC=C(c3ccc(Cl)cc3C[C@@H](C(=O)[*:2])N(C)[*:1])CC2)CC1; NMehhhLys(Me) = CN([C@@H](CCCCCCCN(C)[*:3])C(=O)[*:2])[*:1]; X22 = CN([C@@H](Cc1cc(Cl)ccc1-c1cnn(C)c1)C(=O)[*:2])[*:1]; NMe(hhhLys) = CN([C@@H](CCCCCCCN[*:3])C(=O)[*:2])[*:1]; Cyclobutanecarbonyl(1-CF3) = O=C(C1(C(F)(F)F)CCC1)*; cBuCO(3,3-F2-1-CF3) = O=C(C1(C(F)(F)F)CC(F)(F)C1)*; X161 = Cc1ccc(F)cc1C[C@@H](C(=O)[*:2])N(C)[*:1]; Pro(trans-4-F) = O=C(O)[C@@H]1C[C@@H](F)CN1; Gly(cPr) = N[C@H](C(=O)O)C1CC1
Below, each entry is listed alongside its reported GI50.
Answer format: numeric, nM implied, no suffix.

Worked set:
| Compound | Target | Output unit | GI50 |
| --- | --- | --- | --- |
| CC(C)C[C@@H]1NC(=O)[C@@H](N(C)C(=O)[C@@H](NC(=O)[C@@H]2C[C@@H](F)CN2C(=O)C2(C(F)(F)F)CCC2)C2CC2)CCCCCCCN(C)C(=O)[C@H](Cc2cc(Cl)ccc2-c2cnn(C)c2)N(C)C1=O [Example 185] ({Cyclobutanecarbonyl(1-CF3)}-[Pro(trans-4-F)][Gly(cPr)][NMehhhLys(Me)]L[X22]; lactam 3-C) | OVCAR3 cells | nM | 10 |
| CC(C)C[C@@H]1NC(=O)[C@@H](N(C)C(=O)[C@@H](NC(=O)[C@@H]2C[C@@H](F)CN2C(=O)C2(C(F)(F)F)CC(F)(F)C2)C2CC2)CCCCCCCN(C)C(=O)[C@H](Cc2cc(Cl)ccc2C2=CCC(N3CCN(C)CC3)CC2)N(C)C1=O (stereo partly drawn) [Example 376] ({cBuCO(3,3-F2-1-CF3)}-[Pro(trans-4-F)][Gly(cPr)][NMehhhLys(Me)]L[X8]; lactam 3-C) | OVCAR3 cells | nM | 10 |
| Cc1ccc(F)cc1C[C@H]1C(=O)NCCCCCCC[C@H](N(C)C(=O)[C@@H](NC(=O)[C@@H]2C[C@@H](F)CN2C(=O)C2(C(F)(F)F)CC(F)(F)C2)C2CC2)C(=O)N[C@@H](CC(C)C)C(=O)N1C [Example 264] ({cBuCO(3,3-F2-1-CF3)}-[Pro(trans-4-F)][Gly(cPr)][NMe(hhhLys)]L[X161]; lactam 3-C) | OVCAR3 cells | nM | 30 |
| CC(C)C[C@@H]1NC(=O)[C@@H](N(C)C(=O)[C@@H](NC(=O)[C@@H]2C[C@@H](F)CN2C(=O)C2(C(F)(F)F)CC(F)(F)C2)C2CC2)CCCCCCCN(C)C(=O)[C@H](Cc2cc(Cl)cnc2OC2CC2)N(C)C1=O [Example 105] ({cBuCO(3,3-F2-1-CF3)}-[Pro(trans-4-F)][Gly(cPr)][NMehhhLys(Me)]L[NMeAla(5-Cl-2-cPrO-3-pyridyl)]; lactam 3-C) | OVCAR3 cells | nM | 30 |
| CC(C)C[C@@H]1NC(=O)[C@@H](N(C)C(=O)[C@@H](NC(=O)[C@@H]2C[C@@H](F)CN2C(=O)C2(C(F)(F)F)CC3(CCC3)C2)C2CC2)CC=CCCCCNC(=O)[C@H](Cc2cc(Cl)ccc2Cl)N(C)C1=O (single isomer, unassigned) [Example 16-P2] | OVCAR3 cells | nM | 990 |

Now consider the entry below.
The compound listed as "CC(C)C[C@@H]1NC(=O)[C@@H](NC(=O)[C@@H](NC(=O)[C@@H]2C[C@@H](F)CN2C(=O)C2(C(F)(F)F)CC2)C2CC2)CC=CCCCCN(C)C(=O)[C@H](Cc2cc(Cl)ccc2Cl)N(C)C1=O" has a reported GI50 of 210
